- measured on: human CD98hc ectodomain (recombinant) (human) (UniProt P08195)
- Sequence (P08195 206-630): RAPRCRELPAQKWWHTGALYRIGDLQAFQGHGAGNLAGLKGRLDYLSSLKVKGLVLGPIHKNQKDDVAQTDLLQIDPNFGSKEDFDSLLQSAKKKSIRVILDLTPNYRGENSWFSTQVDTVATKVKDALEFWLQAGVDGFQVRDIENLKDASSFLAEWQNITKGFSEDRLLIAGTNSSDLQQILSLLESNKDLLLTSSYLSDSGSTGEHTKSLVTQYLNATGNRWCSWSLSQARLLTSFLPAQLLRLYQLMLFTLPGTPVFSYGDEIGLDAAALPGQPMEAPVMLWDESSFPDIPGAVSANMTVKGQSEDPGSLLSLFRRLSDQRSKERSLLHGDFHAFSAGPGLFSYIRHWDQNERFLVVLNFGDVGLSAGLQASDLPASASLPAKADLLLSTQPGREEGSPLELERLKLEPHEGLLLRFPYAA
- test details: ELISA, VNAR-hFc in Expi293 medium on coated ectodomain
measured metric: Binding [relative units] (relative units)

Which Binding [relative units] (relative units) value is on record for H8 VNAR-hFc fusion (Fc fusion, Bivalent VNAR-Fc, VNAR N-terminal to human IgG1 Fc; Expi293; not shown: human IgG1 Fc (hinge, CH2, CH3) of vector pFUSE-hIgG1e3-Fc2) ARVDQTPQTITKETGESLTINCVLRDSNCALPSTYWYRKKSGSTNEESISKGGRYVETVNSGSKSFSLRINDLVVEDSGTYRCKVGNYCIRLCYDMKFAVDVYGGGTAVTVNA ?
0.048

Check H12 VNAR-hFc fusion (Fc fusion, Bivalent VNAR-Fc, VNAR N-terminal to human IgG1 Fc; Expi293; not shown: human IgG1 Fc (hinge, CH2, CH3) of vector pFUSE-hIgG1e3-Fc2) ARVDQTPQTITKEEGESLTINCVLRVHGCALASTSWYRKKSGSTREETISKGGRYVETVNSGSKSFSLRINDLTVEDSGTYRCNVYGLSFVDIEGVKKIDVYGDGTAVTVNA too.
0.046

Check F12 VNAR-hFc fusion (Fc fusion, Bivalent VNAR-Fc, VNAR N-terminal to human IgG1 Fc; Expi293; also called F12-hFc; clone F12; not shown: human IgG1 Fc (hinge, CH2, CH3) of vector pFUSE-hIgG1e3-Fc2) ARVDQTPQTITKEEGESLTINCVLRVHGRALASTSWYRKKSGSTREETISKGGRYVETVNSGSKSFSLRINDLTVEDSGTYRCNVYGLSFGDIEGVKKIDVYGDGTAVTVNA too.
3.99

Check C6 VNAR-hFc fusion (Fc fusion, Bivalent VNAR-Fc, VNAR N-terminal to human IgG1 Fc; Expi293; not shown: human IgG1 Fc (hinge, CH2, CH3) of vector pFUSE-hIgG1e3-Fc2) ARVDQTPQTITKETGESLTINCVLRDSNCALSSTYWYRKKSGSTNEALISKGGRYVETVNSGSKSFSLRINDLTVEDSGTYRCNVVYDLRDDCFFRDVYGGGTAVTVNA too.
0.041

Check F1 VNAR-hFc fusion (Fc fusion, Bivalent VNAR-Fc, VNAR N-terminal to human IgG1 Fc; Expi293; also called Fl; not shown: human IgG1 Fc (hinge, CH2, CH3) of vector pFUSE-hIgG1e3-Fc2) ARVDQTPQTITKEEGESLTINCVLRVHGRALASTSWYRKKSGSTREETISKGGRYVETVNSGSKSFSLRINDLTVEDSGTYRCNVYGLSSGDIEGVKKIDVYGDGTAVTVNA too.
3.76

Check F11 VNAR-hFc fusion (Fc fusion, Bivalent VNAR-Fc, VNAR N-terminal to human IgG1 Fc; Expi293; not shown: human IgG1 Fc (hinge, CH2, CH3) of vector pFUSE-hIgG1e3-Fc2) ARVDQTPQTITKEEGESLTINCVLRGEFYALASTSWYRKKSGSTREETISKGGRYVETVNSGSKSFSLRINDLTVEDSGTYRCNVYGYRIFSPEVKGPNDVYGDGTAVTVNA too.
3.03

Check B12 VNAR-hFc fusion (Fc fusion, Bivalent VNAR-Fc, VNAR N-terminal to human IgG1 Fc; Expi293; not shown: human IgG1 Fc (hinge, CH2, CH3) of vector pFUSE-hIgG1e3-Fc2) ARVDQTPRSVTKETGESLTINCVLRDASYALGSTCWYRKKSGSTNEESISKGGRYVETVNSGSKSFSLRINDLTVEDGGTYRCGVARGWRTLNYLCDVRTGEWSCVWRAAACGDGTAVTVNA too.
0.076

Check E12 VNAR-hFc fusion (Fc fusion, Bivalent VNAR-Fc, VNAR N-terminal to human IgG1 Fc; Expi293; not shown: human IgG1 Fc (hinge, CH2, CH3) of vector pFUSE-hIgG1e3-Fc2) ARVDQTPQTITKEEGESLTINCVLRTQDPALASTSWYRKKSGSTREETISKGGRYVETVNSGSKSFSLRINDLTVEDSGTYRCNVYFLLAPTKTKLQGIDVYGDGTAVTVNA too.
2.19

Check H7A VNAR-hFc fusion (Fc fusion, Bivalent VNAR-Fc, VNAR N-terminal to human IgG1 Fc; Expi293; not shown: human IgG1 Fc (hinge, CH2, CH3) of vector pFUSE-hIgG1e3-Fc2) PGVDQTEQTIKKEEGESVTIKCVMRVKYPALASTSRYRKKSGSREETISKGGRYVETVNYSSKSISVRINDMTVEDSGRYRCNVYEEYAVDCDALVYQDVYGDGTAVTVNA too.
0.043

Check G10 VNAR-hFc fusion (Fc fusion, Bivalent VNAR-Fc, VNAR N-terminal to human IgG1 Fc; Expi293; not shown: human IgG1 Fc (hinge, CH2, CH3) of vector pFUSE-hIgG1e3-Fc2) ARVDQTPQTITKETGESLTINCVLRDSNCALSSTYWYRKKSGSTNEENISKGGRYVETVNSGSKSFSLKINDLTVEDSGTYRCKVVFKLFSGRACAGEKDVYGGGTVVTVNA too.
0.043

Check A8 VNAR-hFc fusion (Fc fusion, Bivalent VNAR-Fc, VNAR N-terminal to human IgG1 Fc; Expi293; not shown: human IgG1 Fc (hinge, CH2, CH3) of vector pFUSE-hIgG1e3-Fc2) ARVDQTPQTITKEEGESLTINCVLRRNFQLASTSWYRKKSGSTREETISKGGRYVETVNSGSKSFSLRINDLTVEDSGTYRCNVYGFVEFAKNIVEFIDVYGDGTAVTVNA too.
2.97

Check D1 VNAR-hFc fusion (Fc fusion, Bivalent VNAR-Fc, VNAR N-terminal to human IgG1 Fc; Expi293; also called D1-hFc; not shown: human IgG1 Fc (hinge, CH2, CH3) of vector pFUSE-hIgG1e3-Fc2) ARVDQTPQTITKEEGESLTINCVLRHNYSALASTSWYRKKSGSTREETISKGGRYVETVNSGSKSFSLRINDLTVEDSGTYRCNVYGISFIEEKIRYDFDVYGDGTAVTVNA too.
3.5

Check G3 VNAR-hFc fusion (Fc fusion, Bivalent VNAR-Fc, VNAR N-terminal to human IgG1 Fc; Expi293; not shown: human IgG1 Fc (hinge, CH2, CH3) of vector pFUSE-hIgG1e3-Fc2) ARVDQTPQTITKETGESLTINCVLRDNNCALSTTYWYRKKSGSTNEENISKGGRYVETVNSGSKSFSLRINDLTVEDSGTYRCKVHFFPSFCNSTSIRSVDVYGGGTVVTVNA too.
1.48

Check H7 VNAR-hFc fusion (Fc fusion, Bivalent VNAR-Fc, VNAR N-terminal to human IgG1 Fc; Expi293; not shown: human IgG1 Fc (hinge, CH2, CH3) of vector pFUSE-hIgG1e3-Fc2) ARVDQTPQTITKEEGESLTINCVLRYNNPALASTSWYRKKSGSTREETISKGGRYVETVNSGSKSFSLRINDLTVEDSGTYRCNVYFFPSFLVDKLQSHDVYGDGTAVTVNA too.
3.93
